Biological target: Neutrophil elastase (Homo sapiens)
Assay: Inhibition of human leukocyte elastase, expressed as biomolecular rate constant.
Reported Metric: K obs / 1 (M⁻¹ s⁻¹)

{"Compound": "CCCC1C(=O)N(C(=O)OCC)C1OCC(=O)O (stereo unspecified)", "K obs / 1 (M⁻¹ s⁻¹)": 1500}

(I) CCC1C(=O)N(S(=O)(=O)c2ccc(C)cc2)C1C(=O)OCC(=O)O (stereo in doubt)
(II) CCC1C(=O)N(C(=O)NCc2ccccc2)C1OCC(=O)O (stereo unspecified)
(III) CC[C@@H]1C(=O)N(S(=O)(=O)c2ccc(C)cc2)[C@H]1C(=O)N(C)CC(=O)O
(IV) CCOC(=O)N1C(=O)C(CC)C1[S+]([O-])CC(=O)O (stereo unspecified)
(V) CCOC(=O)N1C(=O)C(CC)C1OCC(=O)O (cis isomer)
Given 5 compounds, produce a descending ranking by K obs / 1. List labels; respect the requested ordering.
I, IV, V, III, II
